These entries and their values trace back to PubChem BioAssay (NCI).

Tested on: CCRF-CEM leukemia
ASSAY PROTOCOL: NCI-60 one-dose screen, 48 h
SETTINGS: 10 µM unless noted
About 83,000 compounds went through this panel and 20% of them were active in at least one assay; those are over-represented in the sample as a whole. The source made the active and inactive calls. How the source made its calls: active means growth percent below 10; inactive means the rest.
Outcome codes: class 1 = active, class 0 = inactive

COMPOUND	LABEL CLASS
C#C[C@]1(O)CC[C@H]2[C@@H]3CC=C4c5nc(Nc6ccccc6[N+](=O)[O-])sc5CC[C@]4(C)[C@H]3CC[C@@]21C	class 0
COC(=O)c1cc2c(=O)[nH]cc3c2c(n1)CCC3	class 0
O=C1CN(Cc2ccc(C(=O)NO)cc2)C(=O)[C@@H](Cc2ccccc2)N1	class 0
C[C@H]1[C@H](C)CC[C@]2(C(=O)O)CC[C@]3(C)C(=CC[C@@H]4[C@@]5(C)C/C(=C/c6ccco6)C(=O)C(C)(C)[C@@H]5CC[C@]43C)[C@H]12	class 1
COc1ccc(-c2cc(-c3ccc(Cl)cc3)nc(SCCCCCCC(=O)NO)n2)cc1	class 1
O=C(NCc1ccccc1)C(Cl)Cl	class 0
C=C(C)[C@@H]1CC[C@]2(C(=O)OC)CC[C@]3(C)[C@H](CC[C@@H]4[C@@](C)(CCc5nn[nH]n5)[C@H](C(=C)C)CC[C@]43C)[C@@H]12	class 1
CN(C)CCOc1ccc(/C(=C(/CCCl)c2ccccc2)c2ccccc2)cc1	class 1
C=C(C)[C@@H]1CC[C@]2(C(N)=O)CC[C@]3(C)[C@H](CC[C@@H]4[C@@]5(C)C/C(=C/c6cccnc6)[C@H](O)C(C)(C)[C@@H]5CC[C@]43C)[C@@H]12	class 1
CC[C@]12C=CCN3CC[C@@]4(c5ccc(OC)cc5N(C)[C@H]4[C@@](O)(C(=O)OC)[C@@H]1OC(=O)CCC(=O)O[C@H]1CC[C@H]4[C@@H]5CCC6=CC(=O)CC[C@@H]6[C@H]5CC[C@]14C)[C@@H]32	class 1
CC1(C)NCCC[C@]2(C)[C@H]3C=CC4=C5C[C@](C)(CO)CC[C@]5(C)CC[C@@]4(C)[C@]3(C)CC[C@@H]12	class 1
C=C(C)[C@@H]1CC[C@]2(COCCC#N)CC[C@]3(C)[C@H](CC[C@@H]4[C@@](C)(CCCNCCC#N)[C@H](C(=C)C)CC[C@]43C)[C@@H]12	class 1
CCCCCCCCCCCCCCNC(=O)Nc1ccc(Cl)c(Cl)c1	class 0
COc1cc(/C=C/C(=O)/C=C/c2ccc(-n3ccnc3)cc2)ccc1O	class 0
COc1ccc2c(c1)C(C)Cc1c(Cl)nc(C)nc1N2C (centres undefined)	class 0
CC1(C)CC[C@]2(C(=O)OC(=O)[C@]34CCC(C)(C)C[C@@H]3C3=CC[C@@H]5[C@@]6(C)CCC(=O)C(C)(C)[C@@H]6CC[C@@]5(C)[C@]3(C)CC4)CC[C@]3(C)C(=CC[C@@H]4[C@@]5(C)CCC(=O)C(C)(C)[C@@H]5CC[C@]43C)[C@H]2C1	class 0
Cc1ccc(C2=C/C(=C/c3ccc(Br)cc3)C(=O)N2CCc2ccc(S(N)(=O)=O)cc2)cc1	class 0
O=C1NC(=O)c2cc([N+](=O)[O-])cc3cccc1c23	class 0
Cc1nc(Cl)cc(N(c2cc(Cl)nc(C)n2)c2ncc(C(=O)Nc3c(C)cccc3Cl)s2)n1	class 0
